Data origin: patent US20250066745A1

Hi there, I'd appreciate the recorded Activity of mutant relative to wild-type Gaussia luciferase without the signal peptide for every entry that follows.
Assay: Luminescence activity assay of purified Gaussia luciferase mutants on coelenterazine
Type: biochemical
Design: key: ratio of mutant luminescence intensity to wild-type Gaussia luciferase
Settings: Substrate CTZ (Table 16)

Per the record, F26R N27D V29E A30G V31I A32D S33N A36N T37A L40R: Gaussia luciferase mutant (protein, SIGNAL (1)..(17), Gaussia luciferase mutant) MGVKVLFALICIAVAEAKPTENNEDRDIEGIDNNFNATDRDADRGKLPGKKLPLEVLKEMEANARKAGCTRGCLICLSHIKCTPKMKKFIPGRCHTYEGDKESAQGGIGEAIVDIPEIPGFKDLEPMEQFIAQVDLCVDCTTGCLKGLANVQCSDLLKKWLPQRCATFASKIQGQVDKIKGAGGD has Activity of mutant relative to wild-type Gaussia luciferase without the signal peptide of 0.053

Per the record, Q152H Q163D T167S S170D G174K Q175E K178S A182Y G183N: Gaussia luciferase mutant (protein, SIGNAL (1)..(17), Gaussia luciferase mutant) MGVKVLFALICIAVAEAKPTENNEDFNIVAVASNFATTDLDADRGKLPGKKLPLEVLKEMEANARKAGCTRGCLICLSHIKCTPKMKKFIPGRCHTYEGDKESAQGGIGEAIVDIPEIPGFKDLEPMEQFIAQVDLCVDCTTGCLKGLANVHCSDLLKKWLPDRCASFADKIQKEVDSIKGYNGD has Activity of mutant relative to wild-type Gaussia luciferase without the signal peptide of 0.383

Per the record, F26L N27D V29P A30G V31I A32G S33A A36T T37C L40E I112T: Gaussia luciferase mutant (protein, SIGNAL (1)..(17), Gaussia luciferase mutant) MGVKVLFALICIAVAEAKPTENNEDLDIPGIGANFTCTDEDADRGKLPGKKLPLEVLKEMEANARKAGCTRGCLICLSHIKCTPKMKKFIPGRCHTYEGDKESAQGGIGEATVDIPEIPGFKDLEPMEQFIAQVDLCVDCTTGCLKGLANVQCSDLLKKWLPQRCATFASKIQGQVDKIKGAGGD has Activity of mutant relative to wild-type Gaussia luciferase without the signal peptide of 0.001

Per the record, F26R N27D V29D A30G A32D S33N T37A L40P: Gaussia luciferase mutant (protein, SIGNAL (1)..(17), Gaussia luciferase mutant) MGVKVLFALICIAVAEAKPTENNEDRDIDGVDNNFAATDPDADRGKLPGKKLPLEVLKEMEANARKAGCTRGCLICLSHIKCTPKMKKFIPGRCHTYEGDKESAQGGIGEAIVDIPEIPGFKDLEPMEQFIAQVDLCVDCTTGCLKGLANVQCSDLLKKWLPQRCATFASKIQGQVDKIKGAGGD has Activity of mutant relative to wild-type Gaussia luciferase without the signal peptide of 0.031

Per the record, F26L N27D V29D A30G S33N A36I T37D L40R: Gaussia luciferase mutant (protein, SIGNAL (1)..(17), Gaussia luciferase mutant) MGVKVLFALICIAVAEAKPTENNEDLDIDGVANNFIDTDRDADRGKLPGKKLPLEVLKEMEANARKAGCTRGCLICLSHIKCTPKMKKFIPGRCHTYEGDKESAQGGIGEAIVDIPEIPGFKDLEPMEQFIAQVDLCVDCTTGCLKGLANVQCSDLLKKWLPQRCATFASKIQGQVDKIKGAGGD has Activity of mutant relative to wild-type Gaussia luciferase without the signal peptide of 0.726

Per the record, F26R N27D V29C A30G V31L A32D S33V A36V T37S: Gaussia luciferase mutant (protein, SIGNAL (1)..(17), Gaussia luciferase mutant) MGVKVLFALICIAVAEAKPTENNEDRDICGLDVNFVSTDLDADRGKLPGKKLPLEVLKEMEANARKAGCTRGCLICLSHIKCTPKMKKFIPGRCHTYEGDKESAQGGIGEAIVDIPEIPGFKDLEPMEQFIAQVDLCVDCTTGCLKGLANVQCSDLLKKWLPQRCATFASKIQGQVDKIKGAGGD has Activity of mutant relative to wild-type Gaussia luciferase without the signal peptide of 1.308

Per the record, F26L N27H V29C V31I S33V A36Q T37S L40G: Gaussia luciferase mutant (protein, SIGNAL (1)..(17), Gaussia luciferase mutant) MGVKVLFALICIAVAEAKPTENNEDLHICAIAVNFQSTDGDADRGKLPGKKLPLEVLKEMEANARKAGCTRGCLICLSHIKCTPKMKKFIPGRCHTYEGDKESAQGGIGEAIVDIPEIPGFKDLEPMEQFIAQVDLCVDCTTGCLKGLANVQCSDLLKKWLPQRCATFASKIQGQVDKIKGAGGD has Activity of mutant relative to wild-type Gaussia luciferase without the signal peptide of 0.066

Per the record, F26G N27Y V29C A30V V31L S33G A36R T37A L40A: Gaussia luciferase mutant (protein, SIGNAL (1)..(17), Gaussia luciferase mutant) MGVKVLFALICIAVAEAKPTENNEDGYICVLAGNFRATDADADRGKLPGKKLPLEVLKEMEANARKAGCTRGCLICLSHIKCTPKMKKFIPGRCHTYEGDKESAQGGIGEAIVDIPEIPGFKDLEPMEQFIAQVDLCVDCTTGCLKGLANVQCSDLLKKWLPQRCATFASKIQGQVDKIKGAGGD has Activity of mutant relative to wild-type Gaussia luciferase without the signal peptide of 0.088

Per the record, Q152R Q163S T167G S170T G174K K178S A182M G183A: Gaussia luciferase mutant (protein, SIGNAL (1)..(17), Gaussia luciferase mutant) MGVKVLFALICIAVAEAKPTENNEDFNIVAVASNFATTDLDADRGKLPGKKLPLEVLKEMEANARKAGCTRGCLICLSHIKCTPKMKKFIPGRCHTYEGDKESAQGGIGEAIVDIPEIPGFKDLEPMEQFIAQVDLCVDCTTGCLKGLANVRCSDLLKKWLPSRCAGFATKIQKQVDSIKGMAGD has Activity of mutant relative to wild-type Gaussia luciferase without the signal peptide of 1.171
